Cited source: patent US20220402916A1

# Tested On: Biotinylated KRAS G12C protein (Homo sapiens, UniProt P01116, C118S/C51S/C80L/G12C)
# Construct: 183 amino acids; biotin on K10
# Sequence (P01116 with tags, fused parts or gaps isoform P01116-2 G12C/C51S/C80L/C118S): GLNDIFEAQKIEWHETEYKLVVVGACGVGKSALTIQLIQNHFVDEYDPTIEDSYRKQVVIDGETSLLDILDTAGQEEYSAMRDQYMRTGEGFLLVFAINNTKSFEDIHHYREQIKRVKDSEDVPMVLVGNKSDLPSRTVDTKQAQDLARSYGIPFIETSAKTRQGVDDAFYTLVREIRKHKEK
# Protocol Summary: SOS-catalyzed nucleotide exchange assay
# Type: biochemical
# Test Settings: apparent potency; preincubation time of 60 minutes prior to addition of SOS
Recorded Metric: log10(IC50) (log10 of the value in nM)
Each number you see is log10 of IC50, and the unit inside the log is nM.

molecule=C=CC(=O)N1CCN(c2cc(C(=O)N[C@H](C)CN3CC(O)(C(F)(F)F)C3)nc3c2CCN(c2cccc4cccc(C)c24)C3)C[C@@H]1CC#N recorded_measurement=1.34

QUERY: Hi! What's the reported log10(IC50) for C=CC(=O)N1CCN(c2cc(C(=O)N3CCC[C@@H]3CN3CCCC3)nc3c2CCN(c2cccc4cccc(C)c24)C3)C[C@@H]1CC#N on Biotinylated KRAS G12C protein (Homo sapiens, UniProt P01116, C118S/C51S/C80L/G12C)?
RESULT: 0.90

QUERY: Provide value of log10(IC50) for this record tested with Biotinylated KRAS G12C protein (Homo sapiens, UniProt P01116, C118S/C51S/C80L/G12C): C=CC(=O)N1CCN(c2cc(C(=O)NC(C)CN(CC)CC)nc3c2CCN(c2cccc4cccc(C)c24)C3)CC1 (racemic)
RESULT: 3.57

QUERY: Could you share what log10(IC50) was measured for C=CC(=O)N1CCN(c2cc(C(=O)NC3CN(C)C3)nc3c2CCN(c2cccc4cccc(C)c24)C3)CC1 , tested on Biotinylated KRAS G12C protein (Homo sapiens, UniProt P01116, C118S/C51S/C80L/G12C)?
RESULT: 3.86

QUERY: Could you share what log10(IC50) was measured for C=CC(=O)N1CCN(c2cc(C(=O)NCC(C)N(C)C)nc3c2CCN(c2cccc4ccccc24)C3)CC1 (racemic) , tested on Biotinylated KRAS G12C protein (Homo sapiens, UniProt P01116, C118S/C51S/C80L/G12C)?
RESULT: 3.78

QUERY: # get_value(readout= log10(IC50), system= Biotinylated KRAS G12C protein (Homo sapiens, UniProt P01116, C118S/C51S/C80L/G12C)) for C=CC(=O)N1CCN(c2cc(C(=O)NCC3CCCN(C)C3)nc3c2CCN(c2cccc4cccc(C)c24)C3)CC1 (racemic)
RESULT: 3.56

* * *

# Tested On: Biotinylated KRAS G12C protein (Homo sapiens, UniProt P01116, C118S/C51S/C80L/G12C)
# Construct: 183 amino acids; biotin on K10
# Protocol Summary: SOS-catalyzed nucleotide exchange assay
# Type: biochemical
# Test Settings: apparent potency; preincubation time of 60 minutes prior to addition of SOS
The label is Met for IC50 below 20 nM and Not met for IC50 equal to or exceeding 20 nM.

compound="C=CC(=O)N1CCN(c2cc(C(=O)N[C@@H]3C[C@@H]3N)nc3c2CCN(c2cccc4cccc(C)c24)C3)CC1 (racemic) [Compound 38]" tested_on="Biotinylated KRAS G12C protein (Homo sapiens, UniProt P01116, C118S/C51S/C80L/G12C)" class="Not met"
compound="C=CC(=O)N1CCN(c2cc(C(=O)Nc3ccccc3N3CCNCC3)nc3c2CCN(c2cccc4cccc(C)c24)C3)C[C@@H]1CC#N [Compound 93]" tested_on="Biotinylated KRAS G12C protein (Homo sapiens, UniProt P01116, C118S/C51S/C80L/G12C)" class="Not met"
compound="C=CC(=O)N1CCN(c2cc(C(=O)NC3(CN)CC3)nc3c2CCN(c2cccc4cccc(C)c24)C3)C[C@@H]1CC#N [Compound 88]" tested_on="Biotinylated KRAS G12C protein (Homo sapiens, UniProt P01116, C118S/C51S/C80L/G12C)" class=Met
compound="C=CC(=O)N1CCN(c2cc(C(=O)Nc3ccccc3CN)nc3c2CCN(c2cccc4cccc(C)c24)C3)C[C@@H]1CC#N [Compound 94]" tested_on="Biotinylated KRAS G12C protein (Homo sapiens, UniProt P01116, C118S/C51S/C80L/G12C)" class=Met
compound="C=CC(=O)N1CCN(c2cc(C(=O)NCCN(C)C)nc3c2CCN(c2cccc4cccc(C)c24)C3)C[C@@H]1CC#N [Compound 64]" tested_on="Biotinylated KRAS G12C protein (Homo sapiens, UniProt P01116, C118S/C51S/C80L/G12C)" class=Met
compound="C=CC(=O)N1CCN(c2c(C)c(C(=O)N[C@H](C)CN(C)C)nc3c2CCN(c2cccc4cccc(C)c24)C3)C[C@@H]1CC#N (racemic) [Compound 85]" tested_on="Biotinylated KRAS G12C protein (Homo sapiens, UniProt P01116, C118S/C51S/C80L/G12C)" class="Not met"
compound="C=CC(=O)N1CCN(c2cc(C(=O)NC(C)CN3CCC(C)(O)C3)nc3c2CCN(c2cccc4cccc(C)c24)C3)C[C@@H]1CC#N (single isomer, unassigned) [Compound 75]" tested_on="Biotinylated KRAS G12C protein (Homo sapiens, UniProt P01116, C118S/C51S/C80L/G12C)" class=Met
compound="C=CC(=O)N1CCN(c2cc(C(=O)NC3CCCN(C)C3)nc3c2CCN(c2cccc4cccc(C)c24)C3)CC1 (racemic) [Compound 52]" tested_on="Biotinylated KRAS G12C protein (Homo sapiens, UniProt P01116, C118S/C51S/C80L/G12C)" class="Not met"

QUERY: Report whether reported IC50 is lower than 20 nM (strictly) for C=CC(=O)N1CCN(c2cc(C(=O)NCCC3CCCCN3)nc3c2CCN(c2cccc4cccc(C)c24)C3)C[C@@H]1CC#N (mixture of isomers) [Compound 105]
RESULT: Met

QUERY: Item C=CC(=O)N1CCN(c2cc(C(=O)NCCCN(C)C)nc3c2CCN(c2cccc4ccccc24)C3)CC1 [Compound 4] : IC50 beneath 20 nM, strictly?
RESULT: Not met

QUERY: Item C=CC(=O)N1CCN(c2cc(C(=O)NCCN(C)C)nc3c2CCN(c2cccc4cccc(C)c24)C3)CC1 [Compound 13] : IC50 beneath 20 nM, strictly?
RESULT: Not met

QUERY: # check: IC50 < 20 nM for C=CC(=O)N1CCN(c2cc(C(=O)NC(C)CN3CCC(F)(F)C3)nc3c2CCN(c2cccc4cccc(C)c24)C3)C[C@@H]1CC#N (single isomer, unassigned) [Compound 71]
RESULT: Not met

QUERY: Hi there! Is IC50 for C=CC(=O)N1CCN(c2cc(C(=O)N3CCCC3CN3CCCCCC3)nc3c2CCN(c2cccc4cccc(C)c24)C3)CC1 (racemic) [Compound 45] below 20 nM, do you know?
RESULT: Not met

* * *

# Tested On: Biotinylated KRAS G12C protein (Homo sapiens, UniProt P01116, C118S/C51S/C80L/G12C)
# Construct: 183 amino acids; biotin on K10
# Protocol Summary: SOS-catalyzed nucleotide exchange assay
# Assay type: biochemical
# Test Settings: apparent potency; preincubation time of 60 minutes prior to addition of SOS
# Description: Compounds are added to this complex, and then after 60 minute incubation time the mixture is treated with recombinant SOS protein and unlabeled GTP. […] The time-resolved fluorescence resonance energy transfer signal for the assay plate is measured on an Envision (PerkinElmer) plate reader: Excitation filter=340 nm; emission1=495 nm; emission2=520 nm; dichroic mirror=D400/D505; delay time=100 μs. The signal of each well is determined as the ratio of the emission at 520 nm to that at 495 nm. […]
Reported values of IC50 for individual entries
Don't forget the unit after the number, please.

compound=C=CC(=O)N1CCN(c2cc(C(=O)NC[C@H]3CCCN3)nc3c2CCN(c2cccc4cccc(C)c24)C3)C[C@@H]1CC#N recorded_measurement="6.2 nM"
compound="C=CC(=O)N1CCN(c2cc(C(=O)NC(CO)CN(C)C)nc3c2CCN(c2cccc4cccc(C)c24)C3)CC1 (racemic)" recorded_measurement="962 nM"

We next turn to a different compound, shown below.
QUERY: Hello, I am looking for reported IC50 with Biotinylated KRAS G12C protein (Homo sapiens, UniProt P01116, C118S/C51S/C80L/G12C) for C=CC(=O)N1CCN(c2cc(C(=O)NCC3CCCCN3)nc3c2CCN(c2cccc4cccc(C)c24)C3)C[C@@H]1CC#N (mixture of isomers) . Could you help?
RESULT: 8.3 nM

* * *

# Tested On: Biotinylated KRAS G12C protein (Homo sapiens, UniProt P01116, C118S/C51S/C80L/G12C)
# Construct: 183 amino acids; biotin on K10
# Protocol Summary: SOS-catalyzed nucleotide exchange assay
# Format: biochemical
# Test Settings: apparent potency; preincubation time of 60 minutes prior to addition of SOS
Catalogue of molecules with associated IC50
Give the quantity in nM, number only.

Completed entries (count: 8):
molecule="C=CC(=O)N1CCN(c2cc(C(=O)N3CCCC3CN3CCCCC3)nc3c2CCN(c2cccc4cccc(C)c24)C3)CC1 (racemic)" recorded_measurement=7870
molecule=C=CC(=O)N1CCN(c2cc(C(=O)NCCN3CCCC3)nc3c2CCN(c2cccc4ccccc24)C3)CC1 recorded_measurement=3920
molecule="C=CC(=O)N1CCN(c2cc(C(=O)N[C@H]3CC[C@@H]3N)nc3c2CCN(c2cccc4cccc(C)c24)C3)CC1 (racemic)" recorded_measurement=468
molecule=C=CC(=O)N1CCN(c2cc(C(=O)N[C@@H]3CCCC[C@H]3N)nc3c2CCN(c2cccc4cccc(C)c24)C3)CC1 recorded_measurement=426
molecule="C=CC(=O)N1CCN(c2cc(C(=O)NC(CN(C)C)C(C)C)nc3c2CCN(c2cccc4cccc(C)c24)C3)CC1 (racemic)" recorded_measurement=145
molecule="C=CC(=O)N1CCN(c2cc(C(=O)NC3CCCC(N(C)C)C3)nc3c2CCN(c2cccc4cccc(C)c24)C3)CC1 (racemic)" recorded_measurement=3540
molecule="C=CC(=O)N1CCN(c2cc(C(=O)N3CCCCC3CN(C)C)nc3c2CCN(c2cccc4cccc(C)c24)C3)CC1 (racemic)" recorded_measurement=7750
molecule="C=CC(=O)N1CCN(c2cc(C(=O)N[C@H]3COC[C@@H]3N(C)C)nc3c2CCN(c2cccc4cccc(C)c24)C3)CC1 (racemic)" recorded_measurement=4470

QUERY: Which IC50 reading was recorded for the molecule C=CC(=O)N1CCN(c2cc(C(=O)N[C@@H]3[C@H](N)CCCC3(F)F)nc3c2CCN(c2cccc4cccc(C)c24)C3)C[C@@H]1CC#N ?
RESULT: 793

QUERY: What IC50 value was documented for this molecule, C=CC(=O)N1CCN(c2cc(C(=O)NC3(CC)CCNC3)nc3c2CCN(c2cccc4cccc(C)c24)C3)C[C@@H]1CC#N (mixture of isomers) ?
RESULT: 4.5

QUERY: Endpoint output: IC50 of C=C(F)C(=O)N1CCN(c2cc(C(=O)N[C@H](C)CN(C)C(C)C)nc3c2CCN(c2cccc4cccc(C)c24)C3)C[C@@H]1CC#N . Value?
RESULT: 12

QUERY: Consider the molecule C=CC(=O)N1CCN(c2cc(C(=O)N[C@H](C)CN(C)C)nc3c2CCN(c2c(Cl)c(C)cc4[nH]ncc24)C3)CC1 and give its measured IC50.
RESULT: 90

QUERY: Request the reported IC50 associated with C=CC(=O)N1CCN(c2cc(C(=O)NC3(CN(CC)CC)CC3)nc3c2CCN(c2cccc4cccc(C)c24)C3)CC1
RESULT: 187

QUERY: Quick one: IC50 of C=CC(=O)N1CCN(c2cc(C(=O)N[C@@H](C)CN(C)C)nc3c2CCN(c2cccc4cccc(C)c24)C3)CC1 ?
RESULT: 614

QUERY: // returns reported IC50 for input C=CC(=O)N1CCN(c2cc(C(=O)NCC[C@H]3CCCN3)nc3c2CCN(c2cccc4cccc(C)c24)C3)C[C@@H]1CC#N
RESULT: 12

QUERY: Would you mind telling me what IC50 value was observed for C=CC(=O)N1CCN(c2cc(C(=O)N[C@H]3CCN(C)C3)nc3c2CCN(c2cccc4cccc(C)c24)C3)CC1 ?
RESULT: 2180

QUERY: // returns reported IC50 for input C=CC(=O)N1CCN(c2cc(C(=O)N[C@H](C)CN)nc3c2CCN(c2cccc4ccccc24)C3)C[C@@H]1CC#N
RESULT: 13

QUERY: Which IC50 is listed for C=CC(=O)N1CCN(c2cc(C(=O)N[C@H]3COC[C@@H]3N)nc3c2CCN(c2cccc4cccc(C)c24)C3)CC1 (racemic) ?
RESULT: 1520

QUERY: Tell me the measured IC50 of C=CC(=O)N1CCN(c2cc(C(=O)N[C@H](C)CN(C)C)nc3c2CCN(c2c(Cl)c(C)cc4[nH]ncc24)C3)C[C@@H]1CC#N , please.
RESULT: 0.9

QUERY: Reported IC50, molecule C=CC(=O)N1CCN(c2cc(C(=O)N[C@H](C)CN3CC(F)(F)C3)nc3c2CCN(c2cccc4cccc(C)c24)C3)C[C@@H]1CC#N : ____
RESULT: 29

QUERY: Which measured IC50 value corresponds to C=CC(=O)N1CCN(c2cc(C(=O)NC[C@H]3CC(F)(F)CN3)nc3c2CCN(c2cccc4cccc(C)c24)C3)C[C@@H]1CC#N ?
RESULT: 29

QUERY: Value lookup for IC50; key = C=CC(=O)N1CCN(c2cc(C(=O)NC3CCN(C)CC3)nc3c2CCN(c2cccc4cccc(C)c24)C3)CC1
RESULT: 9150

QUERY: Look at this molecule and give its reported IC50. C=CC(=O)N1CCN(c2cc(C(=O)N[C@@H]3CCC[C@H]3N(C)C)nc3c2CCN(c2cccc4cccc(C)c24)C3)CC1 (racemic)
RESULT: 259

QUERY: Suppose we examine the molecule C=C(F)C(=O)N1CCN(c2cc(C(=O)NC(C)CN3CCC(C)(O)C3)nc3c2CCN(c2cccc4cccc(C)c24)C3)C[C@@H]1CC#N (single isomer, unassigned) ; what IC50 value has been reported?
RESULT: 5

QUERY: Need IC50, item C=CC(=O)N1CCN(c2cc(C(=O)NC[C@H](C)N)nc3c2CCN(c2cccc4cccc(C)c24)C3)C[C@@H]1CC#N
RESULT: 11
